Numbers sourced from patent US9796711B2.

# Test Target: CFTR ΔF508 (Homo sapiens, UniProt P13569, DEL508-508)
# Construct: bronchial epithelial cells isolated from CF patients homozygous for the CFTR ΔF508 mutation; McGill University; Asterand; University of North Carolina hAEC-CF; host or cells: primary human bronchial epithelial cells from CF patients homozygous for ΔF508
# Sequence (P13569 with tags, fused parts or gaps DEL508-508): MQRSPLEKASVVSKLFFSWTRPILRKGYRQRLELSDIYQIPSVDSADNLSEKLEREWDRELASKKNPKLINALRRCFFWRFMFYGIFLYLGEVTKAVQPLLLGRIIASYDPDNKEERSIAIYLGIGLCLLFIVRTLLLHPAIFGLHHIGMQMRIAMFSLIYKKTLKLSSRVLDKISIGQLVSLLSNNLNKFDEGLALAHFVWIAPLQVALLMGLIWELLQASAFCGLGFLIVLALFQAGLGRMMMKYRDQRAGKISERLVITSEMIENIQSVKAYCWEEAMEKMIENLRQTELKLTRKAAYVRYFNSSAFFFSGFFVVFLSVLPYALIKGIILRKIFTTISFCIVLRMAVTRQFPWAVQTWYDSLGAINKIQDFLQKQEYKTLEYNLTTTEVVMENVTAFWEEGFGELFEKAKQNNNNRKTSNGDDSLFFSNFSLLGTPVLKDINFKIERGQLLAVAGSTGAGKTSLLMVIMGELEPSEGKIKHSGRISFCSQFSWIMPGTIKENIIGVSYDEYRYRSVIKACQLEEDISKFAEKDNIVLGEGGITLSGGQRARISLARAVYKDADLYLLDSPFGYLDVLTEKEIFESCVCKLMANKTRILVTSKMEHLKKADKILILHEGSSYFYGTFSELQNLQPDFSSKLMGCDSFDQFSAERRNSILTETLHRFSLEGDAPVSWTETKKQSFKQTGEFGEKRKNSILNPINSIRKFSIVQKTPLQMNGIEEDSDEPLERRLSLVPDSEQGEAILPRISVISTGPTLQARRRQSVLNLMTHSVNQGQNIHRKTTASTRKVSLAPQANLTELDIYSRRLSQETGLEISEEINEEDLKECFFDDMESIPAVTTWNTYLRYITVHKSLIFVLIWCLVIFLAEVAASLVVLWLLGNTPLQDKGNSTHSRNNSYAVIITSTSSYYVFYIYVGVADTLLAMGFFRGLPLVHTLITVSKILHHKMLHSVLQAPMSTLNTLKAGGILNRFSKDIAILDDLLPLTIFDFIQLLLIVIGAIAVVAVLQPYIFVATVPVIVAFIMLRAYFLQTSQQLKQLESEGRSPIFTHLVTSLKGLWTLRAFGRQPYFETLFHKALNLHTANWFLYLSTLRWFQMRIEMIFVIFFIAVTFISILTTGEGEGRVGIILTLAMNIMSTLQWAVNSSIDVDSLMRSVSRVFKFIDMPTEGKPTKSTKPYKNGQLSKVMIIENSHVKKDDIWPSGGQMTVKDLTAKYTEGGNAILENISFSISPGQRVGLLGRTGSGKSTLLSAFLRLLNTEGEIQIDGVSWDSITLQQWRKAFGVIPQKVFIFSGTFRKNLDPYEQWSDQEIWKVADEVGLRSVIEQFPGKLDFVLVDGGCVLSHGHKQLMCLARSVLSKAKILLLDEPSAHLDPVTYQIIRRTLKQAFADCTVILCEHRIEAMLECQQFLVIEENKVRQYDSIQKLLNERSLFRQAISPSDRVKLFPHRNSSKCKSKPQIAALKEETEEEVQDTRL
# Assay: Chronic TECC assay on primary bronchial epithelial cells (corrector, co-corrector and potentiator)
# Type: cell-based
# Run Conditions: chronic TECC; 1 μM; Ieq = calculations based on the maximum current; with co-corrector and potentiator, 24 hours
# Experimental: Primary Bronchial Epithelial Cells Protocol The TECC (Tranepithelial Clamp Circuit, EP-design) assay measures the functionality of the cystic fibrosis Transmembrane Conductance regulator (CFTR) by measuring the short circuit current (Isc) generated over the basolateral and apical membrane of lung epithelial cells. In TECC the transepithelial potential PD and transepithelial resistance (Rt)) are measured in an open circuit and transformed to Ieq using Ohm's law. […]
The label is TRUE for % Activity at 1 μM (Ieq*) below 300% and FALSE for % Activity at 1 μM (Ieq*) equal to or exceeding 300%.

| Smiles Data | Discrete Label |
| --- | --- |
| CC(C)c1nn(-c2cccc(N3CCOCC3)n2)c2nc(C(=O)O)cc(-c3ccc(N4CCOCC4)cc3)c12 | TRUE |
| Cc1cccc(-n2nc(C(C)C)c3c(N4CCC(C#N)CC4)cc(C(=O)O)nc32)c1 | TRUE |

hey, is % Activity at 1 μM (Ieq*) for CC(C)c1nn(-c2cc(F)cc(F)c2)c2nc(C(=O)O)cc(-c3ccc(N4CCOCC4)cc3)c12 lower than 300% or not?
TRUE

hey, is % Activity at 1 μM (Ieq*) for CC(C)c1nn(-c2cccc(N3CCOCC3)c2)c2nc(C(=O)O)cc(-c3cnc(N4CCC(C#N)CC4)nc3)c12 lower than 300% or not?
TRUE

hey, is % Activity at 1 μM (Ieq*) for COC1CCN(c2cc(C(=O)O)nc3c2c(C(C)C)nn3-c2cccc(C)c2)CC1 lower than 300% or not?
TRUE

hey, is % Activity at 1 μM (Ieq*) for N#CC1CCN(c2ccc(-c3cc(C(=O)O)nc4c3c(C3CCC3)nn4C3CCCCC3)cn2)CC1 lower than 300% or not?
FALSE

hey, is % Activity at 1 μM (Ieq*) for CO[C@H]1CCC[C@@H](n2nc(C(C)C)c3c(-c4ccc(N5CCOCC5)cc4)cc(C(=O)O)nc32)C1 lower than 300% or not?
TRUE

hey, is % Activity at 1 μM (Ieq*) for COCCC1CCN(c2cc(C(=O)O)nc3c2c(C(C)C)nn3-c2cccc(C)c2)CC1 lower than 300% or not?
TRUE

hey, is % Activity at 1 μM (Ieq*) for Cc1cccc(-n2nc(C(C)C)c3c(N4CCC(CO)CC4)cc(C(=O)O)nc32)c1 lower than 300% or not?
FALSE
